System: A549-TP53BP1-CLTA
Assay: phenotypically active (imaging signature differs from DMSO and reproducible) at any of 0.3-9 uM (binary (1 = active, 0 = inactive)); higher = active
Conditions: treatment time: 24 h
Structures can show the parent of a compound that is named as a salt.
phenotypically active by entry:
measure.name: phenotypically active

* CS(=O)(=O)c1cccc(CNc2nc(Nc3ccc4c(c3)CCC(=O)N4)ncc2C(F)(F)F)c1 | 1
* CO[C@H]1C=CC=C(C)C(=O)NC2=CC(=O)C(NCCN(C)C)=C(C[C@@H](C)C[C@H](OC)[C@H](O)[C@@H](C)C=C(C)[C@@H]1OC(N)=O)C2=O [17-DMAG hydrochloride] | 1
* OCCn1cc(-c2cnc3nnn(Cc4ccc5ncccc5c4)c3n2)cn1 | 0
* C[C@H]1[C@H](C)CC[C@]2(C(=O)O[C@@H]3O[C@H](CO[C@@H]4O[C@H](CO)[C@@H](O[C@@H]5O[C@@H](C)[C@H](O)[C@@H](O)[C@H]5O)[C@H](O)[C@H]4O)[C@@H](O)[C@H](O)[C@H]3O)CC[C@]3(C)C(=CC[C@@H]4[C@@]5(C)C[C@@H](O)[C@H](O)[C@@](C)(CO)[C@@H]5CC[C@]43C)[C@H]12 [Asiaticoside] | 0
* NS(=O)(=O)c1cc2c(cc1Cl)NC(C1CC3C=CC1C3)NS2(=O)=O (stereo unspecified) [cyclothiazide] | 0
* CC(=O)C1=C(O)[C@]2(C)C(=CC1=O)Oc1c(C(C)=O)c(O)c(C)c(O)c12 [(+)-Usnic acid] | 0
